# Test system: Acinetobacter baumannii ABA19-1
# Assay type: cell-based
# measurement-context: ABA19-1
Bridge positions count the residues as written; N and C are the ends. Square brackets hold non-standard residues; d marks the D form. Peptide text beside a SMILES is read from it. * marks the point of attachment. Nonanoyl = CCCCCCCCC(=O)*; X1 = CC[C@H](C)CCCCC(=O)*; Heptanoyl = CCCCCCC(=O)*; Orn = NCCC[C@H](N)C(=O)O; dDap = NC[C@@H](N)C(=O)O; Dab = NCC[C@H](N)C(=O)O; Dap = NC[C@H](N)C(=O)O
For each record, write down the corresponding MIC.
Answers are plain numbers, in µg/mL.

Would you please look over these solved cases?
>>> recorded_result("CCCCCCC(=O)N[C@@H](CN)C(=O)N[C@H](C(=O)N[C@H](CO)C(=O)N[C@H]1CCNC(=O)[C@H]([C@@H](C)O)NC(=O)[C@H](CCN)NC(=O)[C@H](CCN)NC(=O)[C@H]([C@@H](C)O)NC(=O)[C@@H](Cc2ccccc2)NC(=O)[C@H](CCN)NC1=O)[C@@H](C)O [Compound 54] (Heptanoyl-[Dap]T[dS][Dab][Dab][dF]T[Dab][Dab]T; lactam 4-C)")
0.25
>>> recorded_result("CCCCCCCCC(=O)N[C@@H](CCCN)C(=O)N[C@H](C(=O)N[C@H](CO)C(=O)N[C@H]1CCNC(=O)[C@H]([C@@H](C)O)NC(=O)[C@H](CCN)NC(=O)[C@H](CCN)NC(=O)[C@H]([C@@H](C)O)NC(=O)[C@@H](Cc2ccccc2)NC(=O)[C@H](CCN)NC1=O)[C@@H](C)O [Compound 60] (Nonanoyl-[Orn]T[dS][Dab][Dab][dF]T[Dab][Dab]T; lactam 4-C)")
0.25

CC[C@H](C)CCCCC(=O)N[C@@H](CCN)C(=O)N[C@H](C(=O)N[C@H](CN)C(=O)N[C@H]1CCNC(=O)[C@H]([C@@H](C)O)NC(=O)[C@H](CCN)NC(=O)[C@H](CCN)NC(=O)[C@H](CC(C)C)NC(=O)[C@@H](Cc2ccccc2)NC(=O)[C@H](CCN)NC1=O)[C@@H](C)O [Compound 31] (X1-[Dab]T[dDap][Dab][Dab][dF]L[Dab][Dab]T; lactam 4-C) yielded MIC of 0.03

###

For each record, write down the corresponding MIC.
# Tested on: Escherichia coli ATCC BAA-2523
# Assay type: cell-based
# measurement-context: ATCC BAA-2523
# Description: The minimal inhibitory concentration (MIC) was determined by the broth microdilution method according to the recommended procedures of the Clinical and Laboratory Standards Institute (CLSI). An appropriate amount of the cyclic lipopeptide compounds prepared in Examples 1-120 and the reference standards were weighed and dissolved in sterile pure water. […]
Bridge positions count the residues as written; N and C are the ends. Square brackets hold non-standard residues; d marks the D form. Peptide text beside a SMILES is read from it. * marks the point of attachment. Dab(CH2SO3H) = N[C@@H](CCNCS(=O)(=O)O)C(=O)O; Heptanoyl(6-Me) = CC(C)CCCCC(=O)*; Sulfomethyl = O=S(=O)(O)C*; X1 = CC[C@H](C)CCCCC(=O)*; Heptanoyl = CCCCCCC(=O)*; Octanoyl = CCCCCCCC(=O)*; Orn = NCCC[C@H](N)C(=O)O; Dab = NCC[C@H](N)C(=O)O; Dap = NC[C@H](N)C(=O)O
Give bare numbers, in µg/mL.

>>> recorded_result("CC(C)CCCCC(=O)N[C@@H](CCNCS(=O)(=O)O)C(=O)N[C@H](C(=O)N[C@H](CO)C(=O)N[C@H]1CCNC(=O)[C@H]([C@@H](C)O)NC(=O)[C@H](CCN)NC(=O)[C@H](CCN)NC(=O)[C@H]([C@@H](C)O)NC(=O)[C@@H](Cc2ccccc2)NC(=O)[C@H](CCN)NC1=O)[C@@H](C)O [Compound 108] ({Heptanoyl(6-Me)}-[Dab(CH2SO3H)]T[dS][Dab][Dab][dF]T[Dab][Dab]T; lactam 4-C)")
0.06
>>> recorded_result("CC(C)CCCCC(=O)N[C@@H](CCN)C(=O)N[C@H](C(=O)N[C@@H](CN)C(=O)N[C@H]1CCNC(=O)[C@H]([C@@H](C)O)NC(=O)[C@H](CCN)NC(=O)[C@H](CCN)NC(=O)[C@H]([C@@H](C)OCS(=O)(=O)O)NC(=O)[C@@H](Cc2ccccc2)NC(=O)[C@H](CCN)NC1=O)[C@@H](C)O [Compound 114] ({Heptanoyl(6-Me)}-[Dab]T[Dap][Dab][Dab][dF]T(Sulfomethyl)[Dab][Dab]T; lactam 4-C)")
0.03
>>> recorded_result("CCCCCCC(=O)N[C@@H](CCN)C(=O)N[C@H](C(=O)N[C@H](CO)C(=O)N[C@H]1CCNC(=O)[C@H]([C@@H](C)O)NC(=O)[C@H](CN)NC(=O)[C@H](CCN)NC(=O)[C@H]([C@@H](C)O)NC(=O)[C@@H](Cc2ccccc2)NC(=O)[C@H](CCN)NC1=O)[C@@H](C)O [Compound 84] (Heptanoyl-[Dab]T[dS][Dab][Dab][dF]T[Dab][Dap]T; lactam 4-C)")
0.25
>>> recorded_result("CCCCCCCC(=O)N[C@@H](CCCN)C(=O)N[C@H](C(=O)N[C@H](CO)C(=O)N[C@H]1CCNC(=O)[C@H]([C@@H](C)O)NC(=O)[C@H](CCN)NC(=O)[C@H](CCN)NC(=O)[C@H]([C@@H](C)O)NC(=O)[C@@H](Cc2ccccc2)NC(=O)[C@H](CCN)NC1=O)[C@@H](C)O [Compound 58] (Octanoyl-[Orn]T[dS][Dab][Dab][dF]T[Dab][Dab]T; lactam 4-C)")
0.125

Here is the next item to consider.
CC[C@H](C)CCCCC(=O)N[C@@H](CCN)C(=O)N[C@H](C(=O)N[C@H](CO)C(=O)N[C@H]1CCNC(=O)[C@H]([C@@H](C)O)NC(=O)[C@H](CCN)NC(=O)[C@H](CCN)NC(=O)[C@H]([C@@H](C)O)NC(=O)[C@@H](Cc2ccccc2)NC(=O)[C@H](CCCN)NC1=O)[C@@H](C)O [Compound 66] (X1-[Dab]T[dS][Dab][Orn][dF]T[Dab][Dab]T; lactam 4-C) yielded MIC of 0.125

###

For each record, write down the corresponding MIC.
# Tested on: Acinetobacter baumannii NCTC 13304 (OXA-27)
# Assay type: cell-based
# measurement-context: NCTC 13304
Bridge positions count the residues as written; N and C are the ends. Square brackets hold non-standard residues; d marks the D form. Peptide text beside a SMILES is read from it. * marks the point of attachment. Nonanoyl = CCCCCCCCC(=O)*; dDab = NCC[C@@H](N)C(=O)O; Heptanoyl = CCCCCCC(=O)*; Octanoyl = CCCCCCCC(=O)*; Orn = NCCC[C@H](N)C(=O)O; dDap = NC[C@@H](N)C(=O)O; Dab = NCC[C@H](N)C(=O)O
Numbers only, in µg/mL.

>>> recorded_result("CCCCCCCCC(=O)N[C@@H](CCN)C(=O)N[C@H](C(=O)N[C@H](CCN)C(=O)N[C@H]1CCNC(=O)[C@H]([C@@H](C)O)NC(=O)[C@H](CCN)NC(=O)[C@H](CCN)NC(=O)[C@H]([C@@H](C)O)NC(=O)[C@@H](Cc2ccccc2)NC(=O)[C@H](CCN)NC1=O)[C@@H](C)O [Compound 15] (Nonanoyl-[Dab]T[dDab][Dab][Dab][dF]T[Dab][Dab]T; lactam 4-C)")
0.06

Provide MIC for all items below, preserving their order.
1. CCCCCCCCC(=O)N[C@@H](CCN)C(=O)N[C@H](C(=O)N[C@@H](CCN)C(=O)N[C@H]1CCNC(=O)[C@H]([C@@H](C)O)NC(=O)[C@H](CCN)NC(=O)[C@H](CCN)NC(=O)[C@H]([C@@H](C)O)NC(=O)[C@@H](Cc2ccccc2)NC(=O)[C@H](CCN)NC1=O)[C@@H](C)O [Compound 20] (Nonanoyl-[Dab]T[Dab][Dab][Dab][dF]T[Dab][Dab]T; lactam 4-C)
2. CCCCCCCCC(=O)N[C@@H](CCCN)C(=O)N[C@H](C(=O)N[C@H](CO)C(=O)N[C@H]1CCNC(=O)[C@H]([C@@H](C)O)NC(=O)[C@H](CCN)NC(=O)[C@H](CCN)NC(=O)[C@H]([C@@H](C)O)NC(=O)[C@@H](Cc2ccccc2)NC(=O)[C@H](CCN)NC1=O)[C@@H](C)O [Compound 60] (Nonanoyl-[Orn]T[dS][Dab][Dab][dF]T[Dab][Dab]T; lactam 4-C)
3. CCCCCCCC(=O)N[C@@H](CCN)C(=O)N[C@H](C(=O)N[C@H](CO)C(=O)N[C@H]1CCNC(=O)[C@H]([C@@H](C)O)NC(=O)[C@H](CCN)NC(=O)[C@H](CCN)NC(=O)[C@H]([C@@H](C)O)NC(=O)[C@@H](Cc2ccccc2)NC(=O)[C@H](CCCN)NC1=O)[C@@H](C)O [Compound 68] (Octanoyl-[Dab]T[dS][Dab][Orn][dF]T[Dab][Dab]T; lactam 4-C)
4. CCCCCCC(=O)N[C@@H](CCN)C(=O)N[C@H](C(=O)N[C@H](CN)C(=O)N[C@H]1CCNC(=O)[C@H]([C@@H](C)O)NC(=O)[C@H](CCN)NC(=O)[C@H](CCN)NC(=O)[C@H](CC(C)C)NC(=O)[C@@H](Cc2ccccc2)NC(=O)[C@H](CCN)NC1=O)[C@@H](C)O [Compound 34] (Heptanoyl-[Dab]T[dDap][Dab][Dab][dF]L[Dab][Dab]T; lactam 4-C)

Out:
0.25
0.25
0.25
0.06

CCCCCCC(=O)N[C@@H](CCN)C(=O)N[C@H](C(=O)N[C@H](CCN)C(=O)N[C@H]1CCNC(=O)[C@H]([C@@H](C)O)NC(=O)[C@H](CCN)NC(=O)[C@H](CCN)NC(=O)[C@H]([C@@H](C)O)NC(=O)[C@@H](Cc2ccccc2)NC(=O)[C@H](CCN)NC1=O)[C@@H](C)O [Compound 14] (Heptanoyl-[Dab]T[dDab][Dab][Dab][dF]T[Dab][Dab]T; lactam 4-C) yielded MIC of 0.03
